Below, each of the compounds is paired with its reported growth value.
Test system: HT29 colon
experimentDescription: NCI-60 one-dose screen, 48 h (100 = growth as untreated, 0 = no growth, -100 = all killed)
testParameters: 10 µM unless noted
This is part of a sample that, as a whole, favours compounds with a hit. Of some 83,000 tested, about 20% had one in any assay.
measuredEndpoint: growth (%)

smiles	measuredEndpoint	unitTag	reportedValue
Cc1nc2c(-c3cnc(N)nc3)nc(N3CCOCC3)nc2n1C(C)C	growth	%	3.37
CCN(CC)C(Cl)=Nc1ccc(Cl)cc1	growth	%	97.3
[Ag].[Ag].[NH-]S(=O)(=O)c1ccc(N=Nc2cc(N=Nc3ccc(S([NH-])(=O)=O)cc3)c3c(NC(=O)C(Cl)Cl)cccc3c2OC(=O)C(Cl)Cl)cc1.[c-]1nccs1.[c-]1nccs1	growth	%	76.2
O=c1cc(N2CCOCC2)oc2c(-c3ccc4c(c3)OCCO4)csc12	growth	%	10.8
Cc1n(Cc2ccc3ccccc3n2)cc[n+]1Cc1ccc2ccccc2n1	growth	%	62

----------
System: NCI-H460 lung
experimentDescription: NCI-60 one-dose screen, 48 h (100 = growth as untreated, 0 = no growth, -100 = all killed)
testParameters: 10 µM unless noted
This is part of a sample that, as a whole, favours compounds with a hit. Of some 83,000 tested, about 20% had one in any assay.
Mark true (1) only for growth values smaller than 50%; exact matches and larger values are false (0).

smiles	label
COc1cc(/C=C/c2ccc3c(Br)cc(Br)c(O)c3n2)ccc1O	true (1)
C/C(=N\NC(=S)N1CCCCC1)c1ccccn1	true (1)
CC(C)OC(=O)c1ccc([N+](=O)[O-])cc1	false (0)
CN1CCN(Cc2ccc(NC(=O)c3cncc(C#Cc4ncc5cnccn45)c3)cc2C(F)(F)F)CC1	false (0)
Cc1cc(N=Nc2ccc(-c3ccc(N=Nc4ccc(O)c(C(=O)O)c4)cc3)cc2)c(N)c(N=Nc2ccc(C(=O)O)cc2)c1N	false (0)

----------
Test system: UACC-62 melanoma
experimentDescription: NCI-60 one-dose screen, 48 h (100 = growth as untreated, 0 = no growth, -100 = all killed)
testParameters: 10 µM unless noted
About 83,000 compounds went through this panel and 20% of them were active in at least one assay; those are over-represented in the sample as a whole.
Overview of recorded growth for various compounds

compound	growth / %
CC(C)CC(NC(=O)OCC1c2ccccc2-c2ccccc21)C(=O)O (stereo not given)	104
O=C(Nc1ccc(Cl)c(C(F)(F)F)c1)c1ccc(Nc2ccc(Cl)nn2)cc1	51.9
CCOC(=O)c1sc2nc(-c3cc4ccccc4o3)cc(-c3ccc(Cl)cc3)c2c1N	66.8
O=C1Nc2ccccc2/C1=C/c1c[nH]c2ccccc12	81.8
NC(=Nc1ccccc1)SCCCSC(N)=Nc1ccccc1	73.4
O=C(NNC(=S)Nc1ccccc1)c1ccc(Nc2ncnc3c2cnn3-c2cccc(Br)c2)cc1	94.6
CCCCCCCCCCCCCC(=S)NCCCC[C@H](NC(=O)OCc1ccccc1)C(=O)Nc1ccccc1	43.1
O=C1OC(c2ccc(-c3ccccc3)cc2)=C/C1=C/c1c(Cl)cccc1Cl	85.5
Cc1cc(C#Cc2ccccc2)ccc1-n1c(/C=C/c2ccc(F)cc2)nc2ccccc2c1=O	55.1
COc1cc(NCCCCC(C)N)c2nccc(C)c2c1 (stereo not given)	91.1
CN1CCN(Cc2ccc(NC(=O)c3cncc(C#Cc4ncc5cnccn45)c3)cc2C(F)(F)F)CC1	57.3
COc1cc2nccc(Oc3ccc(NC(=O)C4(C(=O)Nc5ccc(F)cc5)CC4)cc3)c2cc1O	34.8
COc1ccc(-c2nc(-c3cc(OC)cc(OC)c3)[nH]c2-c2ccc(OC)cc2)cc1	37
COc1ccc(/C(=C\c2ccc3c(c2)OCO3)C(=O)Nc2nc3ccc(F)cc3s2)cc1OC	108
C=CCn1c(SCC(=O)Nc2ccc(C(=O)/C=C/c3ccccc3)cc2)nnc1-c1ccc(OC)c(OC)c1	72.1
CN1CCN(c2ccc(N3Cc4ccccc4OC4=C3C(=O)c3c(O)ccc(O)c3C4=O)cn2)CC1	-59.9
CC(=O)Nc1ccc(Cl)cc1Cl	96.4
CN1CCN(Cc2ccc(NC(=O)c3cccc(C#Cc4cnc(N)c5ncccc45)c3F)cc2C(F)(F)F)CC1	55.5
COc1ccc(-c2nc3ccc(Cc4ccc5nc(-c6ccc(OC)cc6)[nH]c5c4)cc3[nH]2)cc1	38.2
CCSc1ccc([C@@H]2[C@@H](O)C(=O)N2c2cc(OC)c(OC)c(OC)c2)cc1	40.4
COC(=O)C(CCC(=O)CCl)N1C(=O)c2ccccc2C1=O (stereo not given)	64.8
O=C(OCc1ccc2c(Br)cc(Br)c(O)c2n1)c1cc2ccccc2[nH]1	-83
Nc1nc(N)c2c(n1)NC(c1sc(Cl)nc1Cl)CC(c1ccc3c(c1)OCO3)=N2 (stereo not given)	40.1
Nc1nonc1-c1nc2ccccc2n1Cc1ccc(F)cc1	48.8
CN(C)CCOc1nc2c3cccnc3cc(-c3cccc(Cl)c3)c2c2ncccc12	-75.6
COc1ccc(/C=c2\c(=O)n(-c3ccccc3)c3nn4c(=O)c(=O)[nH]nc4n23)cc1	101
CCCCCCCCCCCCCCCCOc1ccc(S(=O)(=O)N(C)C)cc1[N+](=O)[O-]	86.7
O=C(CCCCCCc1nc2ccc(Br)cc2[nH]1)NO	-79.8
COc1ccc(C(=O)c2c(N)nc3n2CCCC3)cc1OC	109
CCc1ccc(Nc2cc(C)c3ccc(O)cc3n2)cc1	30.8
COc1ccc(/C=C2\Cc3c(Br)cccc3C2=O)c(OC)c1	38.9
COc1cc(/C=C/C(=O)c2c(C)nc3ccccc3c2C)ccc1OCCCOc1cc2c(cc1OC)C(=O)N1CCC[C@H]1C=N2	-81.3
O=C(O)Cn1ccc2ccccc21	104
COc1ccc(C2CC(c3ccc(Nc4ccnc5cc(Cl)ccc45)cc3)=NN2c2ccccc2)cc1 (stereo not given)	95
CCCCN(CCCC)CCC(O)c1cc2ccc(C(F)(F)F)cc2c2cc(C(F)(F)F)ccc12 (stereo not given)	40.8
C/C=C(\C)C(C(=O)NC1CCCCC1)N(C(=O)C1CCc2cc(F)ccc2O1)c1ccc([N+](=O)[O-])cc1 (stereo not given)	70.1
COc1ccc2[nH]cc(/C=C3\C(=O)Nc4ccccc43)c2c1	26
O=C(c1ccc(C(F)(F)F)c(Cl)c1)N(Cc1ccc(Cl)cc1)c1ccc(-c2cc(C(F)(F)F)[nH]n2)c(O)c1	14.5
Cc1nc2ccc(Nc3nc(NCCN4CCOCC4)nc(Nc4ccc(F)cc4)n3)cc2n1Cc1ccccc1	-24.8
COc1ccc(-c2n[nH]nc2-c2cc(OC)c3c(c2)OCO3)cc1	28

The measurements presented in this section are drawn from PubChem BioAssay (NCI).
